# measurement.target: 3E7 antibody
# assay.info: Solution radioimmunoassay, inhibition of [125I]b-endorphin binding to mAb 3E7
# recorded.conditions: geometric mean; 30 pM [125I]b-endorphin; 20% tracer bound; 18 hr. incubation; 0.25 μg/ml 3E7
pIC50: −log10 of the molar value. Where no end group is shown, it is not given here.
Parameter threshold = 6. Response is YES when pIC50 meets or exceeds it, else NO.

YGPFWS [YGPFWS] : NO
YGGWAG [YGGWAG] : NO
YGNWTY [YGNWTY] : NO
YGFWGM [YGFWGM] : YES

Prompt: Kindly determine if pIC50 recorded for YAGFAQ [YAGFAQ] is above or exactly 6.
Response: NO

Prompt: Kindly determine if pIC50 recorded for YGGFPD [YGGFPD] is above or exactly 6.
Response: NO

Prompt: Kindly determine if pIC50 recorded for YGGF [Tyr-Gly-Gly-Phe, reference compound] is above or exactly 6.
Response: YES

Prompt: Kindly determine if pIC50 recorded for YGGFL [Tyr-Gly-Gly-Phe-Leu, reference compound] is above or exactly 6.
Response: YES
